Values were extracted from PubChem BioAssay AID588777.

TARGET: Scavenger receptor class B member 1 (Mus musculus) (UniProt Q61009)
Sequence (Q61009 whole entry, looked up): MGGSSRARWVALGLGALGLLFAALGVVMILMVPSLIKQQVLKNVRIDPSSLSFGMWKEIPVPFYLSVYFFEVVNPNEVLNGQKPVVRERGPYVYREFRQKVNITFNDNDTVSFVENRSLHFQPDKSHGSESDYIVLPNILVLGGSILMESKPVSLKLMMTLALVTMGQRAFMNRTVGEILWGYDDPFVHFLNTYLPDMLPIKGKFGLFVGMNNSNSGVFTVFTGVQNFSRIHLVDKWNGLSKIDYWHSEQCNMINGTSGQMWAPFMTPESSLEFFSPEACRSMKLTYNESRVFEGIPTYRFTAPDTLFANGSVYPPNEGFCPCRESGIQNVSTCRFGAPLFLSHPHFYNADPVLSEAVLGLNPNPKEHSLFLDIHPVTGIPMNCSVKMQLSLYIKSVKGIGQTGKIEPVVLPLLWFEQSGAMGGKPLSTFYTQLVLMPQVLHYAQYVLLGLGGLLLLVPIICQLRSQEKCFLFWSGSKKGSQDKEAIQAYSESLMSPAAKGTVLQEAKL
ASSAY_SUMMARY: Alexa488-HDL binding change at mSR-BI cells – ldlA[mSR-BI] cells, powder samples, orthogonal assay for SR-BI HDL uptake inhibitor project, dose response (AID 588777)
REPORTED_CONDITIONS: Alexa488-HDL binding fluorescence, 3 h
READOUT_NAME: AC50

C[C@@H]1CN([C@H](C)CO)C(=O)c2cc(NC(=O)Cc3cn(C)c4ccccc34)ccc2O[C@H]1CN(C)S(C)(=O)=O | 25 µM
C[C@@H]1CN([C@H](C)CO)C(=O)c2cc(NC(=O)Cc3cn(C)c4ccccc34)ccc2O[C@H]1CN(C)C(=O)Nc1ccc(F)cc1 | 1.93 µM
CCc1sc(N2C(=O)C3C4CCC(C4=C(C)C)C3C2=O)nc1-c1ccccc1 (stereo not given) | 0.441 µM
CCn1c(COc2c(C)cccc2C)nnc1SCC(=O)N1CCN(c2ccccc2)CC1 | 5.89 µM
O=C(Nc1cccc(NC(=O)c2cc([N+](=O)[O-])ccc2Cl)n1)c1cc([N+](=O)[O-])ccc1Cl | 5.11 µM
CC(C)(C)NC(=O)N1CCN(c2ncccc2C(F)(F)F)CC1 | 7.61 µM
C[C@H]1CN([C@@H](C)CO)C(=O)c2cccc(NC(=O)Nc3ccc(F)cc3)c2O[C@@H]1CN(C)Cc1ccc(Cl)c(Cl)c1 | 0.533 µM
CCOc1ccccc1/C=C/c1onc(C)c1S(=O)(=O)N1CCC(C(=O)NC(C)(C)C)CC1 | 11.3 µM
COc1ccc([C@H]2CC(=O)C=C(c3cccc4c3sc3ccccc34)C2)cc1OC | 2.28 µM
C[C@H]1CN([C@@H](C)CO)C(=O)c2cc(NC(=O)Cc3cn(C)c4ccccc34)ccc2O[C@H]1CN(C)S(=O)(=O)c1ccc(F)cc1 | 25.4 µM
COc1ccc(-c2nnn(CC(=O)N(C3CCCCC3)C(C)C(=O)NC3CCCC3)n2)cc1OC (stereo not given) | 0.422 µM
C[C@H]1CN([C@@H](C)CO)C(=O)c2cccc(NC(=O)Nc3ccccc3)c2O[C@@H]1CN(C)Cc1ccc(Cl)c(Cl)c1 | 1.79 µM
O=C(Nc1cc(Cl)ccc1Cl)c1cc(Br)ccc1NS(=O)(=O)c1ccc(Cl)c([N+](=O)[O-])c1 | 4.23 µM
CC(C)OCCCNC(=O)c1ccc(C2SCC(=O)N2Cc2ccco2)cc1 (stereo not given) | 16.5 µM
COc1cccc(-c2csc(N3CCN(C(=S)Nc4cccc(Cl)c4)CC3)n2)c1 | 12 µM

----------
Form field: AC50 (one value per entry).
TARGET: Scavenger receptor class B member 1 (Mus musculus)
ASSAY_SUMMARY: Alexa488-HDL binding change at mSR-BI cells – ldlA[mSR-BI] cells, powder samples, orthogonal assay for SR-BI HDL uptake inhibitor project, dose response (AID 588777)
REPORTED_CONDITIONS: Alexa488-HDL binding fluorescence, 3 h
READOUT_NAME: AC50

COc1ccc(OC)c(CCNC(=O)c2ccc3c(c2)N(Cc2ccc(F)cc2)CCS3)c1 | 6.52 µM
O=C(Nc1ccc(-c2nc3cc(NC(=O)c4ccc(NC(=O)c5cccc6ccccc56)cc4)ccc3[nH]2)cc1)c1ccc(NC(=O)c2cccc3ccccc23)cc1 | < 0.015 µM
N#Cc1sc2nc(C3CC3)cc(-c3ccc(Cl)cc3)c2c1N | 20.1 µM
Cc1cc(SC(C)C(=O)Nc2ncc(Cl)cc2Cl)nc2ccccc12 (stereo unspecified) | 6.84 µM
CCOC(=O)N1CCC(NC(=O)c2ccc3c(c2)N(Cc2ccc(F)cc2)CCS3)CC1 | 2.4 µM
COC(=O)c1cn(C(=O)c2cccc3ccccc23)c2ccccc12 | 23 µM
